B1: CROP (parent)
chain: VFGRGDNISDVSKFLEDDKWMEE

Variants of: B1
runDescription: protein stability index of a GFP-peptide fusion (GPS, HEK-293T) (PSI 1-6); higher = more stable;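 also: lentivirally expressed fusions sorted by FACS into six bins by GFP to DsRed ratio, PSI derived from sequencing read proportions per bin multiplied by bin number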
protocolConditions: c terminus: native
The following variants are shown together with reported protein stability index values.
// keep it numeric: no unit symbol after the value

monomersequence="VFGRGDNISDVSKFEEDDKWMEE [L15E]" reported=3.77

Problem: Look up protein stability index for this variant: VFGRGDNIVDVSKFLEDDKWMEE [S9V]
Result: 2.11

Problem: Look up protein stability index for this variant: EFGRGDNISDVSKFLEDDKWMEE [V1E]
Result: 2.97

Problem: Which protein stability index is reported for this variant? VFGRGDNISPVSKFLEDDKWMEE [D10P]
Result: 1.69

Problem: Name the reported protein stability index value associated with the variant VFGRGDNISDVSKFLEDDAWMEE [K19A]
Result: 1.27
